B1: CRYL1 (parent)
chain: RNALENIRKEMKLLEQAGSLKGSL

variants of: B1; assay: protein stability index of a GFP-peptide fusion (GPS, HEK-293T) (PSI 1-6); higher = more stable; details: c terminus: a fixed tail appended;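 also: lentivirally expressed fusions sorted by FACS into six bins by GFP to DsRed ratio, PSI derived from sequencing read proportions per bin multiplied by bin number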
Measurement Type: protein stability index
API doc: respond with a numeric literal and nothing else, no unit.

Sample RNALENILKEMKLLEQAGSLKGSL [R8L] ; protein stability index observed: 1.65

Sample RNALENIRKEMKLLEQAGSLKGTL [S23T] ; protein stability index observed: 2.8

Sample RNALENIRKEMKLLEQHGSLKGSL [A17H] ; protein stability index observed: 3.06

Sample RNAQENIRKEMKLLEQAGSLKGSL [L4Q] ; protein stability index observed: 4.75

Sample RNALEPIRKEMKLLEQAGSLKGSL [N6P] ; protein stability index observed: 3.4

Sample RNALENIRKEMKLLEQAGSLQGSL [K21Q] ; protein stability index observed: 3.18

These entries and their values trace back to the supplement of paper PMC10567573.
